# ASSAY_COMMENT: gradient 5% acetonitrile 3 min, to 50% in 2 min, to 85% in 15 min, held 3 min, 100 µL/min
# TEST_SETTINGS: column: Zorbax Extend-C18 2.1 x 50 mm; eluents: water / acetonitrile, 0.1% formic acid
REPORTED_ENDPOINT: RP-LC retention time (s)

These recorded examples may help you get a feel for the data.
STRUCTURE | REPORTED_ENDPOINT | VALUE_OBSERVED
Cc1cc(C)n(Cc2nc(-c3ccc(NC(=O)Cc4ccc(Cl)cc4)cc3)oc2C)n1 | RP-LC retention time | 997
O=C(NCc1cscn1)C1CCN(S(=O)(=O)c2ccc(Br)s2)CC1 | RP-LC retention time | 740
Cc1nc(Nc2ccc(F)cn2)sc1C(=O)N1CCN(c2ccccc2)CC1 | RP-LC retention time | 875

A = Cc1ccccc1-c1noc(Cn2nc(-c3ccc4c(c3)OCO4)ccc2=O)n1
B = Cc1ccc(NC(=O)N2CCc3nc[nH]c3C2)c(Cl)c1
RP-LC retention time comparison. Which is larger, A or B ? Which one? Tell me its label.
A
(A: 943 s, B: 585 s)

* * *

# ASSAY_COMMENT: gradient 5% acetonitrile 3 min, to 50% in 2 min, to 85% in 15 min, held 3 min, 100 µL/min
# TEST_SETTINGS: column: Zorbax Extend-C18 2.1 x 50 mm; eluents: water / acetonitrile, 0.1% formic acid
REPORTED_ENDPOINT: RP-LC retention time (s)

1 = CN(Cc1ccccc1)c1ccc(-c2noc(CN3CCC4(CC3)OCCO4)n2)cn1
2 = Oc1ccccc1-c1nc2ccc(Cl)cn2c1Nc1ccc(Cl)cc1
Select one. Lower RP-LC retention time: 1 or 2 Which one? Tell me its label.
1
(1: 745 s, 2: 1090 s)

* * *

# ASSAY_COMMENT: gradient 5% acetonitrile 3 min, to 50% in 2 min, to 85% in 15 min, held 3 min, 100 µL/min
# TEST_SETTINGS: column: Zorbax Extend-C18 2.1 x 50 mm; eluents: water / acetonitrile, 0.1% formic acid
REPORTED_ENDPOINT: RP-LC retention time (s)

These recorded examples may help you get a feel for the data.
COMPOUND | RP-LC retention time, s
O=C(Nc1ccc2c(c1)OCO2)N1CCC(N2CCN(Cc3ccccc3)C(=O)C2=O)CC1 | 706
O=C(c1ccco1)N1CCN(C(=O)C2CN(S(=O)(=O)C3CC3)CC23CCCCC3)CC1 (stereo not drawn) | 758
CCC(C)NC(=O)C1CCN(c2cnc(N3CCOCC3)nc2)CC1 (stereo not drawn) | 638
CCC(=O)N1c2ccccc2CC1c1nc(C(C)C)no1 (stereo not drawn) | 913
CN(C)C(=O)C1c2ccccc2CC(=O)N1Cc1ccccc1 (stereo not drawn) | 728
Cc1noc(C)c1S(=O)(=O)N1CC(N(Cc2cccnc2)CC(C)C)C1 | 706
CCc1ccccc1NS(=O)(=O)c1ccc(CN2C(=O)c3ccccc3C2=O)cc1 | 954
COc1cc2c(cc1OC)C(C(=O)N1CCN(c3ccccn3)CC1)C1c3ccccc3CCN1C2=O (stereo not drawn) | 590

P = CCNC(=O)C1CCCN(c2nc3ncn(CC(=O)NCc4ccccc4Cl)c(=O)c3s2)C1 (stereo not drawn)
Q = CCCC(=O)Nc1nc(-c2ccccc2)c(C(=O)OCC)s1
Select one. Lower RP-LC retention time: P or Q Which one? Tell me its label.
P

a = O=C(Cc1ccccc1)NC(c1ccccc1)c1ccc2cccnc2c1O (stereo not drawn)
b = COc1ccc(-c2nnc(-c3ccc(C)c(S(=O)(=O)N4CCC(C)CC4)c3)o2)cc1
Select one. Lower RP-LC retention time: a or b Which one? Tell me its label.
a
(a: 822 s, b: 1220 s)

* * *

# ASSAY_COMMENT: gradient 5% acetonitrile 3 min, to 50% in 2 min, to 85% in 15 min, held 3 min, 100 µL/min
# TEST_SETTINGS: column: Zorbax Extend-C18 2.1 x 50 mm; eluents: water / acetonitrile, 0.1% formic acid
REPORTED_ENDPOINT: RP-LC retention time (s)

These recorded examples may help you get a feel for the data.
COMPOUND | RP-LC retention time, s
COc1ccc(-c2nnc(-c3ccccc3Cl)o2)cc1S(=O)(=O)N1CCCCCC1 | 1100
COc1cccc2c1OC1(C)CC2NC(=O)N1c1cccc(C(=O)N2CCN(c3ccccn3)CC2)c1 (stereo not given) | 588
Cc1cc(C)nc(SCCCNC(=O)Nc2cc(C)on2)n1 | 663

A = CCc1cc(C(=O)Nc2ccc(C)cc2)nc2ccnn12
B = CCOc1ccccc1NC(=O)N1CC(n2ccnc2C)C1
Select one. Lower RP-LC retention time: A or B Which one? Tell me its label.
B
(B: 639 s, A: 1060 s)

* * *

# ASSAY_COMMENT: gradient 5% acetonitrile 3 min, to 50% in 2 min, to 85% in 15 min, held 3 min, 100 µL/min
# TEST_SETTINGS: column: Zorbax Extend-C18 2.1 x 50 mm; eluents: water / acetonitrile, 0.1% formic acid
REPORTED_ENDPOINT: RP-LC retention time (s)

These recorded examples may help you get a feel for the data.
COMPOUND | RP-LC retention time / s
O=C(NCc1ccccn1)c1nnc(-c2ccc(S(=O)(=O)N3CCCCC3)cc2)o1 | 732
CC(C)Cc1noc(C2(F)CCN(S(=O)(=O)c3ccc(F)cc3F)CC2)n1 | 1150

I = Cc1ccsc1C(=O)N1CCC(Nc2ncnc3c2CCC3)CC1
II = O=C(NC1(c2nc(-c3ccccc3)no2)CCCCC1)c1cccc(F)c1
Select one. Lower RP-LC retention time: I or II Which one? Tell me its label.
I
(I: 778 s, II: 1180 s)

* * *

# ASSAY_COMMENT: gradient 5% acetonitrile 3 min, to 50% in 2 min, to 85% in 15 min, held 3 min, 100 µL/min
# TEST_SETTINGS: column: Zorbax Extend-C18 2.1 x 50 mm; eluents: water / acetonitrile, 0.1% formic acid
REPORTED_ENDPOINT: RP-LC retention time (s)

These recorded examples may help you get a feel for the data.
COMPOUND | RP-LC retention time, s
O=C(CCc1c[nH]c2ccccc12)NCCc1c[nH]c2ccc(Cl)cc12 | 861
COc1ccc(-c2ccnc3nc(-c4ccccc4OC)nn23)c(F)c1 | 872
Cc1ccc(NC(=O)c2cc3c(=O)n(CC(C)C)ccc3n2C)cc1Cl | 1020
Cc1cccc(C)c1NC(=O)C1CCCN(c2nc3ccccc3nc2C(F)(F)F)C1 (centres undefined) | 1170
N#Cc1ccc(C(=O)N2CCN(c3cc(-c4ccc(F)cc4)[nH]n3)CC2)cc1 | 767
CC(C)c1ccc(OCC(=O)Nc2nnc(C3CC(=O)N(c4ccccc4)C3)o2)cc1 (centres undefined) | 728
NS(=O)(=O)c1ccc2nc(NC(=O)C3=COCCO3)sc2c1 | 613
CCC(C)NC(=O)CN1c2ccc(F)cc2-c2ccccc2S1(=O)=O (centres undefined) | 870
O=C(CSc1ccc(N2CCCC(C(=O)NC3CC3)C2)nn1)Nc1ccc(Br)cc1 (centres undefined) | 691
Cc1ccc(NC(=O)NC2CCN(c3ccccc3)C2=O)cc1C (centres undefined) | 853

a = Cc1ccc(NC(=O)Cn2nc(N(C)C)c3ccccc3c2=O)c(Br)c1
b = O=C(Cc1cc(-c2ccc(Cl)cc2)on1)NCCC1=CCCCC1
Select one. Lower RP-LC retention time: a or b Which one? Tell me its label.
b
(b: 584 s, a: 1010 s)

* * *

# ASSAY_COMMENT: gradient 5% acetonitrile 3 min, to 50% in 2 min, to 85% in 15 min, held 3 min, 100 µL/min
# TEST_SETTINGS: column: Zorbax Extend-C18 2.1 x 50 mm; eluents: water / acetonitrile, 0.1% formic acid
REPORTED_ENDPOINT: RP-LC retention time (s)

These recorded examples may help you get a feel for the data.
MOLECULE | UNITS_OF_MEASURE | RP-LC retention time
CC(C)n1c(=O)oc2cc(S(=O)(=O)N3CCN(C(=O)C4(c5ccccc5)CC4)CC3)ccc21 | s | 902
CCC(C)(C)C(=O)NC1CCN(C2=NS(=O)(=O)C(c3ccc(C)c(C)c3)=C2C)CC1 | s | 950
CS(=O)(=O)N1CCCc2cc(C(=O)N3CCC(C(N)=O)CC3)ccc21 | s | 604
COc1ccccc1-c1cc(C(F)(F)F)n2ncc(C(=O)OCCN3CCOCC3)c2n1 | s | 710
O=S(=O)(Cc1ccccc1)N1CCC[C@H]1c1nc(-c2ccc(F)cc2)n[nH]1 | s | 819
CCOc1ccccc1-n1ccn(Cc2nc(-c3ccc(Cl)cc3)no2)c(=O)c1=O | s | 938
O=C(CCN1C(=O)c2cccc3cccc(c23)C1=O)NC1CCS(=O)(=O)C1 (centres undefined) | s | 641

a = O=C(c1cc2ccccc2oc1=O)N1CCCC(c2nnc(-c3ccccc3)o2)C1 (centres undefined)
b = CCc1cccc(NC(=O)c2cc3sccc3n2Cc2ccc(F)cc2)c1
RP-LC retention time comparison. Which is larger, a or b ? Which one? Tell me its label.
b
(b: 1260 s, a: 793 s)

Reference source for all entries: the METLIN SMRT retention time set (Domingo-Almenara et al. 2019)
